Tested On: D2 (Homo sapiens)
Sequence (P14416 whole entry): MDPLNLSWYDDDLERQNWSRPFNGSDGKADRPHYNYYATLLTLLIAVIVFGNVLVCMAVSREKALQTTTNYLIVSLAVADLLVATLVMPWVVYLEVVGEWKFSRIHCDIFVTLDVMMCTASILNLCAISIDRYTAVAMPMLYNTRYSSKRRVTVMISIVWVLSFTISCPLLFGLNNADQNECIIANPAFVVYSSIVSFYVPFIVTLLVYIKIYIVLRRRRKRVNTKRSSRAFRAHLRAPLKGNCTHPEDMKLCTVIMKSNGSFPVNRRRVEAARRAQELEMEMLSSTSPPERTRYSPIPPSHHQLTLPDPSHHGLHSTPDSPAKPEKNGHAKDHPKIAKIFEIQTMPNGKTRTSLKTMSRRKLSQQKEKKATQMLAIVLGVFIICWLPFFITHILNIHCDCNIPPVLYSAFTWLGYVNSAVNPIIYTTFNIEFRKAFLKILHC
Protocol: Functional Potency (IC50) on Human Receptors: D2
Test Settings: human receptor
Property Measured: IC50 (nM)

> print(dat)
                                   molecule  reported
1  C[C@@]1(O)CC2CC1[C@@H]1C(=O)N(CC3CCCC[C@H]3CN3CCN(c4nsc5ccccc45)CC3)C(=O)[C@H]21 (stereo in doubt)        25

----------
Tested On: 5HT2A (Homo sapiens, UniProt P28223)
Sequence (P28223 whole entry): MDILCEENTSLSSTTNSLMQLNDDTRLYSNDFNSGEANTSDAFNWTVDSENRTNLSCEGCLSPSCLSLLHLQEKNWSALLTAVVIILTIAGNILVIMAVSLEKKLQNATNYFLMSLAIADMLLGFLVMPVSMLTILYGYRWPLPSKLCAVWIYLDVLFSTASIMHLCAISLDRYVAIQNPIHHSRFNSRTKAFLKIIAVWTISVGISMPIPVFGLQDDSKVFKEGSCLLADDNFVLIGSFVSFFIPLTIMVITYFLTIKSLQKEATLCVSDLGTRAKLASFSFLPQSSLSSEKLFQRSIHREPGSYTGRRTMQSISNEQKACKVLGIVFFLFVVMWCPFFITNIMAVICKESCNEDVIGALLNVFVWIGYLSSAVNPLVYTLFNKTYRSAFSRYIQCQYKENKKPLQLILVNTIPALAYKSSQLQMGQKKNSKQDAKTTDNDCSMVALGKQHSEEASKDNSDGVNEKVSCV
pKi: −log10 of the molar value.
Property Measured: pKi

> print(dat)
                                   molecule  property.measured  reported
1  C[C@@]1(O)CC2CC1[C@@H]1C(=O)N(CC3CCCC[C@H]3CN3CCN(c4nsc5ccccc45)CC3)C(=O)[C@H]21 (stereo in doubt)                pKi    > 8.00

----------
Tested On: α2A (Homo sapiens, UniProt P08913)
Sequence (P08913 whole entry): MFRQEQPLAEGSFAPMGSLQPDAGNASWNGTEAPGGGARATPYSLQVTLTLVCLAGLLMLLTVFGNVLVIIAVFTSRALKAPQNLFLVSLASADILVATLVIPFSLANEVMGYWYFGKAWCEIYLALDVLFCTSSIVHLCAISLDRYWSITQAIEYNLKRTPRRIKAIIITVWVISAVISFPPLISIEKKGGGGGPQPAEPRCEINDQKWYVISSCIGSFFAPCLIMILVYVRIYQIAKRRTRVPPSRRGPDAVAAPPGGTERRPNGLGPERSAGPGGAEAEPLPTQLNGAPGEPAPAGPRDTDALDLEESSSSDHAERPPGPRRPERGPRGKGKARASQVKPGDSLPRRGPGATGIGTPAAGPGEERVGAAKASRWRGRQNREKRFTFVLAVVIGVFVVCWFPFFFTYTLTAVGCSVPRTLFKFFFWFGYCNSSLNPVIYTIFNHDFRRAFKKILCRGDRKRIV
Protocol: Functional Potency (IC50) on Human Receptors: α2A
Test Settings: human receptor
pIC50: −log10 of the molar value.
Property Measured: pIC50

> print(dat)
                                   compound  reported
1  C[C@@]1(O)CC2CC1[C@@H]1C(=O)N(CC3CCCC[C@H]3CN3CCN(c4nsc5ccccc45)CC3)C(=O)[C@H]21 (stereo in doubt)      5.91

----------
Tested On: UniProt P35367
Sequence (P35367 whole entry): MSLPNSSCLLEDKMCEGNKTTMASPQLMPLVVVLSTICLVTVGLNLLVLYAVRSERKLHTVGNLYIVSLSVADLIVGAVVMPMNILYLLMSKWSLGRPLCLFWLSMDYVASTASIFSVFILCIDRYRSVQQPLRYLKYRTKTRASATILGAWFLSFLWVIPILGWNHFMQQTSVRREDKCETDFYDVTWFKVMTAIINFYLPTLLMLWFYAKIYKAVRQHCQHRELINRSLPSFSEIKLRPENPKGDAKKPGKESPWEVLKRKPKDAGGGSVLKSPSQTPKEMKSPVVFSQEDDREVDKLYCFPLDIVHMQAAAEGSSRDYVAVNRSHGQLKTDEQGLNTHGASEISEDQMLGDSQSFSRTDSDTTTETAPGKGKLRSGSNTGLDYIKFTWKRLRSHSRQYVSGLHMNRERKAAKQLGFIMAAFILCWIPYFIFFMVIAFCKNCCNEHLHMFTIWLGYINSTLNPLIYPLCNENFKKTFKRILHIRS
Protocol: Functional Potency (IC50) on Human Receptors: H1
Test Settings: human receptor
pIC50: −log10 of the molar value.
Property Measured: pIC50

> print(dat)
                                   compound  reported
1  C[C@@]1(O)CC2CC1[C@@H]1C(=O)N(CC3CCCC[C@H]3CN3CCN(c4nsc5ccccc45)CC3)C(=O)[C@H]21 (stereo in doubt)      5.51

----------
Tested On: α1A (Homo sapiens, UniProt P35348)
Sequence (P35348 whole entry): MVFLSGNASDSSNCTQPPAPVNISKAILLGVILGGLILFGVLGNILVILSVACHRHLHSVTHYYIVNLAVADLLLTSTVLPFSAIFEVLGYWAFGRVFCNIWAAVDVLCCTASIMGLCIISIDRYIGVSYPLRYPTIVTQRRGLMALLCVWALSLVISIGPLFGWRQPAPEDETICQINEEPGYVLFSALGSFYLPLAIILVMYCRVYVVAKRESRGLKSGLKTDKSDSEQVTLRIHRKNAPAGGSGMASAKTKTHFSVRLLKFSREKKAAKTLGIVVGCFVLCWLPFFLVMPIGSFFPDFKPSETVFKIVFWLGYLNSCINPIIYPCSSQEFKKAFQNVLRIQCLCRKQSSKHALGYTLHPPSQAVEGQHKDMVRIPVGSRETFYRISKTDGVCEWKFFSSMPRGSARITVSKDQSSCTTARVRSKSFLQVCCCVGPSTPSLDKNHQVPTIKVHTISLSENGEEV
Property Measured: Ki (nM)

> print(dat)
                                   compound  reported
1  C[C@@]1(O)CC2CC1[C@@H]1C(=O)N(CC3CCCC[C@H]3CN3CCN(c4nsc5ccccc45)CC3)C(=O)[C@H]21 (stereo in doubt)        31

----------
Tested On: 5HT1A (Homo sapiens, UniProt P08908)
Sequence (P08908 whole entry): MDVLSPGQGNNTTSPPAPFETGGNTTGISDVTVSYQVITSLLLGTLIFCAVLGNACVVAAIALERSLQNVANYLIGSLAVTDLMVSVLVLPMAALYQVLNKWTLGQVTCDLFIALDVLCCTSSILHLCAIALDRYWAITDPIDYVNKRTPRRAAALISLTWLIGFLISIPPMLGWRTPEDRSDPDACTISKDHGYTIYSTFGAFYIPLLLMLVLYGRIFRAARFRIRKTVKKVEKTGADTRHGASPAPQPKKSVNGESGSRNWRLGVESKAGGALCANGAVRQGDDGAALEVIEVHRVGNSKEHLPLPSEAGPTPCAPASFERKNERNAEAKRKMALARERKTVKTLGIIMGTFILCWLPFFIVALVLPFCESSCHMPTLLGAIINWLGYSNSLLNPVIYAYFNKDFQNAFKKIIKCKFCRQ
Protocol: Functional Potency on Human Receptors: 5HT1A
Test Settings: human receptor
pEC50: −log10 of the molar value.
Property Measured: pEC50

> print(dat)
                                   compound  property.measured  reported
1  C[C@@]1(O)CC2CC1[C@@H]1C(=O)N(CC3CCCC[C@H]3CN3CCN(c4nsc5ccccc45)CC3)C(=O)[C@H]21 (stereo in doubt)              pEC50      7.01

----------
Tested On: 5HT2C (Homo sapiens, UniProt P28335)
Sequence (P28335 33-458): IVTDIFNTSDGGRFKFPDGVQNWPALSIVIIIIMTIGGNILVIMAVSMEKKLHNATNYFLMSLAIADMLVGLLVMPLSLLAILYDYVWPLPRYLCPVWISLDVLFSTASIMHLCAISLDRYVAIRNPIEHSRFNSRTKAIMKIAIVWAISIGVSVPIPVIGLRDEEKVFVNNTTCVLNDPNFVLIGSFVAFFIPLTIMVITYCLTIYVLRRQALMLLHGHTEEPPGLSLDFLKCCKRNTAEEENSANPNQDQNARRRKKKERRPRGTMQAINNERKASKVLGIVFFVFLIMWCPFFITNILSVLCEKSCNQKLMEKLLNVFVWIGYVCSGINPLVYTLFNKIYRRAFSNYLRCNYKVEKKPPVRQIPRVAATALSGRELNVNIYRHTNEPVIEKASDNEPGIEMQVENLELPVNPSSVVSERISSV
Protocol: Functional Potency (IC50) on Human Receptors: 5HT2C
Test Settings: human receptor
Property Measured: IC50 (µM)

> print(dat)
                                   compound  reported
1  C[C@@]1(O)CC2CC1[C@@H]1C(=O)N(CC3CCCC[C@H]3CN3CCN(c4nsc5ccccc45)CC3)C(=O)[C@H]21 (stereo in doubt)      1.71
